Below is a list of entries, each paired with its recorded MIC value.
Tested on: up to 32 different microorganisms
Experiment: in vitro antibacterial activity (MIC), agar dilution on Brain Heart Infusion (BHI) agar with Steers replicator
Assay type: cell-based
Settings: organism code EE; unit assumed
Description: Representative compounds of the present invention were assayed in vitro for antibacterial activity as follows: Twelve petri dishes containing successive aqueous dilutions of the test compound mixed with 10 mL of sterilized Brain Heart Infusion (BHI) agar (Difco 0148-01-5) were prepared. Each plate was inoculated with 1:100 (or 1:10 for slow-growing strains, such as Micrococcus and Streptococcus) dilutions of up to 32 different microorganisms, using a Steers replicator block. […]
Express the result in µg/mL but write the number alone.

[[record]]
compound = "CC[C@H]1OC(=O)[C@H](C)C(=O)[C@H](C)[C@@H](O[C@@H]2O[C@H](C)C[C@H](N(C)C)[C@H]2O)[C@@](C)(OCC2COC(C)(C)O2)C[C@@H](C)C(=O)[C@H](C)[C@H]2NC(=O)O[C@@]21C (stereo partly shown) [Example 259]"
reported_endpoint = "MIC"
observed_measurement = 6.2


Req: GET /values?readout=MIC&item= CC[C@H]1OC(=O)[C@H](C)C(=O)[C@H](C)[C@@H](O[C@@H]2O[C@H](C)C[C@H](N(C)C)[C@H]2O)[C@@](C)(OCC#Cc2ccc3ncccc3c2)C[C@@H](C)C(=O)[C@H](C)[C@H]2NC(=O)O[C@@]21C [Example 254]
Resp: 0.1

Req: Consider next the compound CCC1OC(=O)C(C)C(=O)C(C)C(OC2OC(C)CC(N(C)C)C2O)C(C)(OCC=Cc2ccc3nccnc3c2)CC(C)C(=O)C(C)C2NC(=O)OC12C (stereo not shown) [Example 207, R is —CH2CH═CH-(6-quinoxalinyl)] in the same way.
Resp: 0.1

Req: Consider next the compound CCC1OC(=O)C(C)C(=O)C(C)C(OC2OC(C)CC(N(C)C)C2O)C(C)(OCC=Cc2ccc3[nH]c4ccccc4c3c2)CC(C)C(=O)C(C)C2NC(=O)OC12C (stereo not shown) [Example 204, R is —CH2CH═CH-(3-carbazolyl)] in the same way.
Resp: 0.1

====

Below is a list of entries, each paired with its recorded MIC value.
Tested on: up to 32 different microorganisms
Assay: in vitro antibacterial activity (MIC), agar dilution on Brain Heart Infusion (BHI) agar with Steers replicator
Format: cell-based
Details: organism code KK; unit assumed
Express the result in µg/mL but write the number alone.

[[record]]
compound = "CCC1OC(=O)C(C)C(=O)C(C)C(OC2OC(C)CC(N(C)C)C2O)C(C)(OCC=Cc2cnc3ccc(C#N)cc3c2)CC(C)C(=O)C(C)C2NC(=O)OC12C (centres unmarked) [Example 218, R is —CH2CH═CH-(6-cyano-3-quinolyl)]"
study_system = "up to 32 different microorganisms"
observed_measurement = 0.01


In the following, a different compound is considered.
Req: GET /values?readout=MIC&item= CC[C@H]1OC(=O)[C@H](C)C(=O)[C@H](C)[C@@H](O[C@@H]2O[C@H](C)C[C@H](N(C)C)[C@H]2O)[C@@](C)(OCC=NOCc2ccc3ccccc3c2)C[C@@H](C)C(=O)[C@H](C)[C@H]2NC(=O)O[C@@]21C [Example 236]
Resp: 0.05

====

Below is a list of entries, each paired with its recorded MIC value.
Tested on: up to 32 different microorganisms
Assay: in vitro antibacterial activity (MIC), agar dilution on Brain Heart Infusion (BHI) agar with Steers replicator
Type: cell-based
Conditions: Mycobacterium smegmatis ATCC 114 (code UU); unit assumed
Express the result in µg/mL but write the number alone.

[[record]]
compound = "CC[C@H]1OC(=O)[C@H](C)C(=O)[C@H](C)[C@@H](O[C@@H]2O[C@H](C)C[C@H](N(C)C)[C@H]2O)[C@@](C)(OCC=Cc2cnc3ccccc3c2)C[C@@H](C)C(=O)[C@H](C)[C@H]2N(C)C(=O)O[C@]12C"
observed_measurement = 0.2

[[record]]
compound = "CCC1OC(=O)C(C)C(=O)C(C)C(OC2OC(C)CC(N(C)C)C2O)C(C)(OCC=Cc2ccc3nc(C)ccc3c2)CC(C)C(=O)C(C)C2NC(=O)OC12C (stereo not drawn)"
observed_measurement = 1.56

[[record]]
compound = "CCC1OC(=O)C(C)C(=O)C(C)C(OC2OC(C)CC(N(C)C)C2O)C(C)(OCC=Cc2cnc3ccccc3c2)CC(C)C(=O)C(C)C2N(CC=Cc3cnc4ccccc4c3)C(=O)OC12C (stereo not drawn)"
observed_measurement = 6.2

[[record]]
compound = "CC[C@H]1OC(=O)[C@H](C)C(=O)[C@H](C)[C@@H](O[C@@H]2O[C@H](C)C[C@H](N(C)C)[C@H]2O)[C@@](C)(OCC=Cc2ccccc2)C[C@@H](C)C(=O)[C@H](C)[C@@H](O)[C@]1(C)O"
observed_measurement = 3.1


Req: GET /values?readout=MIC&item= CCC1OC(=O)C(C)C(=O)C(C)C(OC2OC(C)CC(N(C)C)C2O)C(C)(OCC=Cc2cnc3ccccc3c2)CC(C)C(=O)C(C)C2N(CCN(C)C)C(=O)OC12C (stereo not drawn)
Resp: 0.39

Req: Consider next the compound CCC1OC(=O)C(C)C(=O)C(C)C(OC2OC(C)CC(N(C)C)C2O)C(C)(OCC=Cc2ccc3[nH]ccc3c2)CC(C)C(=O)C(C)C2NC(=O)OC12C (stereo not drawn) in the same way.
Resp: 0.78

Req: Consider next the compound "CC[C@H]1OC(=O)[C@H](C)C(=O)[C@H](C)[C@@H](O[C@@H]2O[C@H](C)C[C@H](N(C)C)[C@H]2O)[C@@](C)(OCc2ccc3ccccc3c2)C[C@@H](C)C(=O)[C@H](C)[C@@H](O)[C@]1(C)O" in the same way.
Resp: 3.1

Req: Consider next the compound CCC1OC(=O)C(C)C(=O)C(C)C(OC2OC(C)CC(N(C)C)C2O)C(C)(OCC=Cc2cccc([N+](=O)[O-])c2)CC(C)C(=O)C(C)C2NC(=O)OC12C (stereo not drawn) in the same way.
Resp: 0.39
